Values compiled from patent US20070032529A1.

Listed here are compounds together with their documented pIC50.
Molecular target: recombinant human liver glycogen phosphorylase (Homo sapiens, UniProt P06737)
Construct: made in house; host or cells: Sf9 insect cells (crude homogenate, diluted, used as the enzyme solution)
Sequence (P06737 whole entry): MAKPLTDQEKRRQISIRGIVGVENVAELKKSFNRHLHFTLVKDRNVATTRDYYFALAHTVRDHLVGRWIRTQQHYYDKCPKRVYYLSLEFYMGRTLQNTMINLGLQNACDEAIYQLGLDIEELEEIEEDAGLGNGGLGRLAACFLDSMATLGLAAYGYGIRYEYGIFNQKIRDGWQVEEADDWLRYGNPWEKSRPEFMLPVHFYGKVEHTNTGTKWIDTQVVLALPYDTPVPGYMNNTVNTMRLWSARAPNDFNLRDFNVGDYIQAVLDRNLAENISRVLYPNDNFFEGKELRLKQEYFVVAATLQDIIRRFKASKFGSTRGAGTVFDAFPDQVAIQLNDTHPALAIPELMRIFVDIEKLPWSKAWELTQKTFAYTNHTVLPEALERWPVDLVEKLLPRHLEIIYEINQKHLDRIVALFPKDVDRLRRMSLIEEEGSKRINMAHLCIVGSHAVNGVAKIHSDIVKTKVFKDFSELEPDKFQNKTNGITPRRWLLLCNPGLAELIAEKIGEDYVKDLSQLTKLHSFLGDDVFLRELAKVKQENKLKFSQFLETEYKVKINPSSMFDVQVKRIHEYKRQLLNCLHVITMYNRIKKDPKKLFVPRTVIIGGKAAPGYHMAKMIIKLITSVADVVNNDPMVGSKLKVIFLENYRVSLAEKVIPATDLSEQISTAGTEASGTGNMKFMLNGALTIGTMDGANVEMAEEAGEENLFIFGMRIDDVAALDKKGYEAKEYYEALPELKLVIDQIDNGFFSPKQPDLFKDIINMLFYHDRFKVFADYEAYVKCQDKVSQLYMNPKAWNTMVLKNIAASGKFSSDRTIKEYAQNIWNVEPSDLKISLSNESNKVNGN
Test: Measuring liver glycogen phosphorylase activity (forward reaction system, NADPH absorbance at 340 nm)
Type: biochemical
Conditions: enzyme inhibitory activity with respect to liver glycogen phosphorylase; class symbols
pIC50: −log10 of the molar value.

Here's what some known entries look like.
{"columns": ["COMPOUND STRING", "RESULT"],
 "data": [
  ["CN(C)c1nc(Cl)ccc1CNC(=O)c1cc(NC(=O)c2cc(F)c(F)cc2Cl)[nH]n1", "> 7.00"],
  ["COc1ccnc(CNC(=O)c2cc(NC(=O)c3cc(F)c(F)cc3Cl)[nH]n2)c1OC", "> 7.00"],
  ["COc1cc(C)ncc1CNC(=O)c1cc(NC(=O)c2cc(F)c(F)cc2Cl)[nH]n1", "> 7.00"],
  ["CCCN(Cc1ccc(N(C)C)nc1)C(=O)c1cc(NC(=O)c2cc(F)c(F)cc2Cl)[nH]n1", "> 7.00"],
  ["CCOCCN(C(=O)c1cc(NC(=O)c2cc(F)c(F)cc2Cl)[nH]n1)C1CCCCC1", "> 7.00"],
  ["COc1cscc1CNC(=O)c1cc(NC(=O)c2cc(F)c(F)cc2Cl)[nH]n1", "> 7.00"],
  ["CCCCN(C(=O)c1cc(NC(=O)c2cc(F)c(F)cc2Cl)[nH]n1)C1CCN(S(C)(=O)=O)CC1", "6.52 to 7.00"],
  ["O=C(NCc1c(Cl)cncc1Cl)c1cc(NC(=O)c2cc(F)c(F)cc2Cl)[nH]n1", "> 7.00"],
  ["O=C(NCc1ccc(F)cc1)c1cc(NC(=O)c2cc(F)c(F)cc2Cl)[nH]n1", "> 7.00"],
  ["O=C(NCc1cccs1)c1cc(NC(=O)c2cc(F)c(F)cc2Cl)[nH]n1", "> 7.00"]
]}

[ask] Specify pIC50 for COc1ccccc1CNC(=O)c1cc(NC(=O)c2cc(F)c(F)cc2Cl)[nH]n1 and stop.
[reply] > 7.00

[ask] Name the recorded pIC50 of the compound listed here: CCNC(=O)CN(C(=O)c1cc(NC(=O)c2cc(F)c(F)cc2Cl)[nH]n1)c1ccccc1
[reply] > 7.00

[ask] Report pIC50 for COc1nc(C)ccc1CNC(=O)c1cc(NC(=O)c2cc(F)c(F)cc2Cl)[nH]n1
[reply] > 7.00

[ask] Note pIC50 for the compound shown: O=C(NCc1ccc(-c2cccs2)s1)c1cc(NC(=O)c2cc(F)c(F)cc2Cl)[nH]n1
[reply] 6.52 to 7.00

[ask] Retrieve pIC50 measured for CC(C)CN(C(=O)c1cc(NC(=O)c2cc(F)c(F)cc2Cl)[nH]n1)c1ccccc1 and print it.
[reply] 6.52 to 7.00

[ask] Output measured pIC50 for this item: O=C(NCc1cccnc1OCC(F)(F)F)c1cc(NC(=O)c2cc(F)c(F)cc2Cl)[nH]n1
[reply] > 7.00
